Quick reference for kon among some binders
Biological target: T1, soluble human GPNMB (recombinant extracellular domain) (human, UniProt Q14956 23-498)
T1 construct: also called huGPNMB; recombinant human GPNMB extracellular domain; not shown: C-terminal polyhistidine or Avi-His tag
T1 sequence: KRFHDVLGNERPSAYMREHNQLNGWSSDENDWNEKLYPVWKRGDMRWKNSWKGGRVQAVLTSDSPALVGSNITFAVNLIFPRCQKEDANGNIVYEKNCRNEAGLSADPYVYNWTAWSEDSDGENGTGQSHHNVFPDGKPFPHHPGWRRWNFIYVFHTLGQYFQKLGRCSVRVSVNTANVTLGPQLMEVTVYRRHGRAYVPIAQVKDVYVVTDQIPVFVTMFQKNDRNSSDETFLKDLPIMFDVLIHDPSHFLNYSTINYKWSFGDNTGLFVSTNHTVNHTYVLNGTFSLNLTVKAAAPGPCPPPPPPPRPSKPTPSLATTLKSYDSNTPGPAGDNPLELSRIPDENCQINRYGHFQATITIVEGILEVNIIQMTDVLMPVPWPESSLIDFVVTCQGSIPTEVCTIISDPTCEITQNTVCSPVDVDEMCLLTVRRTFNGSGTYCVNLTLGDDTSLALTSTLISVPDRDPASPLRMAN
Experiment: SPR Carterra, Ab immobilized

{"columns": ["binder", "kon [M⁻¹ s⁻¹]"],
 "data": [
  ["anti-GPNMB antibody GPN-65 (antibody, human IgG1, V domains shown, chimeric) VH: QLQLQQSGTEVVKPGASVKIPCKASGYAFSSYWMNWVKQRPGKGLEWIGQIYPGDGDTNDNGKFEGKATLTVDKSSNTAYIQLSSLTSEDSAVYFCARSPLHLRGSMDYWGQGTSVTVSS VL: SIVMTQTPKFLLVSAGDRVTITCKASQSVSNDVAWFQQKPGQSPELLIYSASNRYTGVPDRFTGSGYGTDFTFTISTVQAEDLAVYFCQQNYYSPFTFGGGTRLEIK", 210000],
  ["anti-GPNMB antibody GPN-41 (antibody, human IgG1, V domains shown, chimeric) VH: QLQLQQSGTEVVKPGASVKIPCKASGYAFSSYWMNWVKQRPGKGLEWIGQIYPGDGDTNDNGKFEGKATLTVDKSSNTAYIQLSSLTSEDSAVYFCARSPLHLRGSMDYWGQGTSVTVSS VL: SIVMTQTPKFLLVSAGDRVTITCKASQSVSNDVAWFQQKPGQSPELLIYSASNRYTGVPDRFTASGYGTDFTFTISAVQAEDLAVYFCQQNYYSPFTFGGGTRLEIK", 200000],
  ["anti-GPNMB antibody GPN-43 (antibody, human IgG1, V domains shown, chimeric) VH: EVQLQQSGPELVKPGASVKISCKASGYTFTDYYMNWVRQSHGKSLEWIGDINPYHGGSTYNQKIKVKATLTVDKSSSTAYMELRSLTSEDSAVYYCARNWPYFDYWGQGTTLTVSS VL: DIQMTQSPASLSASVGETVTITCRASENIYSFLVWYQQKQGKSPQLLVYNAKTLAEGVPSRFSGSGSGTQFSLKISSLQPEDFGSYYCQHHFGTPPYTFGGGTKLEIK", 18000]
]}
